test system: ZR-75-1; test: Caspase cascade activation assay in ZR-75-1 cells (N-(Ac-DEVD)-N'-ethoxycarbonyl-R110 fluorogenic substrate); format: cell-based; details: ZR-75-1 human breast cancer cells, 24 h incubation; ratio of net RFU of test compound to control
property.name: Caspase activity (Ratio)
Output: the number by itself.

Worked cases, Caspase activity (Ratio) given:
>>> endpoint_value("Cn1ccc2c3c(ccc21)C(c1cnc(O)c(Cl)c1)C(C#N)=C(N)O3 (stereo not drawn) [Example 9]")
7.8
>>> endpoint_value("Cn1ccc2c3c(ccc21)C(c1cncc(Cl)c1)C(C#N)=C(N)O3 (stereo not drawn) [Example 7]")
13.1
>>> endpoint_value("Cn1ccc2c3c(ccc21)C(c1cncc(Br)c1)C(C#N)=C(N)O3 (stereo not drawn) [Example 11]")
4.1
>>> endpoint_value("Cn1ccc2c3c(ccc21)C(c1ccc(F)c(Br)c1)C(C#N)=C(N)O3 (stereo not drawn) [Example 40I]")
4.4
>>> endpoint_value("COc1cc(C2C(C#N)=C(N)Oc3c2ccc2c3ccn2C)cc(OC)c1OC (stereo not drawn) [Example 24]")
7.1

Let us move to another entry and its Caspase activity (Ratio).
Indicate the recorded Caspase activity (Ratio) value for this compound: Cn1ccc2c3c(ccc21)C(c1cnc2ccccc2n1)C(C#N)=C(N)O3 (stereo not drawn) [Example 3]
3.1

Source listed as patent US7528164B2.
